assay: intrinsic compound fluorescence with Jurkat cells – cell-based, flow cytometry, artefact control for VLA-4 allosteric ligand project, primary screen (AID 576); settings: compound autofluorescence, stronger effect = higher value, 1 = vehicle-only cell background;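 note: green fluorescence of cells measured with 488 nm excitation and 530 nm emission; tested at 10 µM compound in the well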
About 150 (0.62%) of roughly 24,000 compounds were called active. The full list was thinned out, with actives kept by preference.
Classify as follows. Reported fluorescence ratio greater than or equal to 1: met. Reported fluorescence ratio below: not met.

# molecule, labelClass
measured = [
    ("CCC(C)n1[nH]c(=O)c2c(C)cc(C)nc21 (stereo unspecified)", "met"),
    ("COc1ccc(C2C(C(=O)N3CCN(c4ccc(OC)cc4)CC3)c3ccccc3C(=O)N2C)cc1 (stereo unspecified)", "met"),
    ("CCOc1ccc(N(CC(=O)OC)S(=O)(=O)c2c(C)noc2C)cc1", "met"),
    ("CCOC(=O)c1c(NC(=O)c2cccs2)sc(C)c1C", "met"),
    ("CCOc1ccc(N(CC(=O)NCc2ccc(OC)cc2)S(=O)(=O)c2c(C)noc2C)cc1", "not met"),
    ("CCN1CCCC1CNC(=O)Cn1cnc2ccc(S(=O)(=O)N3CCC(C)CC3)cc2c1=O (stereo unspecified)", "met"),
    ("Fc1ccc2nc(N3CCCCC3)sc2c1", "met"),
    ("Cc1ccc2cccc(O)c2[n+]1[O-]", "met"),
    ("O=C(O)CC(c1ccccc1)n1cnnn1 (stereo unspecified)", "not met"),
    ("Cc1ccc(-c2ccc(=O)n(CC(=O)NCCCN3CCCCC3)n2)cc1", "met"),
    ("CCCC(=O)NC(C)C(c1cccs1)N1CCN(c2ccccc2)CC1 (stereo unspecified)", "met"),
    ("COC(=O)Cn1cc(C(=O)c2cccs2)c2ccccc21", "not met"),
    ("CC1CCCC(N2CCN(C(=O)c3ccc(F)cc3)CC2)C1 (stereo unspecified)", "not met"),
    ("CC(=O)N1C(=O)C2(Nc3ccccc3N2)c2ccccc21", "met"),
    ("CCOC(=O)C1CCCN(C(=O)C2CCN(c3nnc(-n4cccc4)s3)CC2)C1 (stereo unspecified)", "met"),
    ("COc1ccc(C(CC(=O)O)NC(=O)Cc2ccccc2)cc1 (stereo unspecified)", "not met"),
    ("CCc1c(C)c2c(C)[nH]nc2oc1=O", "met"),
    ("O=C(Cn1cc2c(n1)CCCCC2)NCCN1CCOCC1", "not met"),
    ("Cc1ccc(CNC(=O)CN2CCN(Cc3ccc(Cl)cc3)C2=O)cc1", "met"),
    ("CCC(=O)N1CCc2cc(S(=O)(=O)NC(C(=O)N3CCc4ccccc4C3)C(C)C)ccc21 (stereo unspecified)", "not met"),
    ("CCC(=O)N1c2ccc(S(=O)(=O)CCC(=O)N3CCN(c4ccccc4)CC3)cc2CC1C (stereo unspecified)", "met"),
    ("Cn1nnnc1SCc1cc(=O)[nH]c2ccccc12", "met"),
    ("CCN(CC(=O)Nc1ccc2c(c1)OCCO2)Cc1cc(=O)oc2cc(C)c(C)cc12", "met"),
    ("O=C(O)CSCNC(=O)CC12CC3CC(CC(C3)C1)C2", "not met"),
    ("CC(=O)N(CC1CCCO1)C1(C(=O)NC2CCCC2)CCCCC1 (stereo unspecified)", "not met"),
    ("Cc1ccccc1CSc1nnc(Cn2c(=O)sc3ccccc32)n1C", "not met"),
    ("O=C(CN1C(=O)C2C3C=CC(C3)C2C1=O)NCCc1ccccc1Cl (stereo unspecified)", "met"),
    ("Cc1ccc(S(=O)(=O)NCc2csc(C)n2)c(C)c1", "not met"),
    ("COC(=O)C1=C(C)OC(N)=C(C#N)C1c1cc(OC)ccc1OC (stereo unspecified)", "met"),
    ("Cc1cc(NC(=O)CSCc2nc(-c3cccc(Cl)c3)oc2C)no1", "met"),
    ("COc1ccccc1-n1cnc2cc(C(=O)NCC3CCCO3)ccc21 (stereo unspecified)", "met"),
    ("COCCOC(=O)C1=C(C)N=c2s/c(=C\\c3cccs3)c(=O)n2C1c1cccs1 (stereo unspecified)", "met"),
    ("CC(=O)Nc1nonc1-c1nc2ccccc2n1Cc1ccccn1", "met"),
    ("Fc1ccc2nc(Nc3nc4c(s3)CCCC4)sc2c1", "met"),
    ("CC(=O)c1c(C)[nH]c(C(=O)NCCCN2CCCC2)c1C", "not met"),
    ("Cc1oc(C)c(C(=O)NCCCC(=O)O)c1C(=O)NCCCC(=O)O", "met"),
]

Origin of the recorded values: PubChem BioAssay AID576
